Each recorded value in this set is attributed to PubChem BioAssay AID1851.

target: Cytochrome P450 2D6 (Homo sapiens); experiment: Cytochrome panel assay with activity outcomes; conditions: recombinant CYP, pro-luciferin dealkylation, luminescence, p450-cyp2d6; series mostly up to 57.1 µM
About 2,600 (16%) of roughly 16,000 compounds were called active. Roughly 20% stayed inconclusive and do not appear here. The call rests on the fitted dose curve; in most records, active means well fitted curve in the direction sought with a large enough effect; inconclusive means small, poorly fitted or top-dose-only effect, or effect the other way; inactive means no such curve, though single readings can be large or run the other way. Only a sample is shown.
Hello, when you answer, please use one of the following outcomes: Y for active, N for inactive

// query // param item: `O=C(N/N=C/c1ccc([N+](=O)[O-])o1)c1cc(-c2ccncc2)nc2ccccc12` ; yields the recorded call
// result Y

// query // param item: `C=CCn1c(Cc2c[nH]c3ccccc23)nnc1SCC(=O)NCc1ccccc1` ; yields the recorded call
// result Y

// query // param item: `Cn1c(=O)c2[nH]c(-c3ccc(S(=O)(=O)O)cc3)nc2n(C)c1=O` ; yields the recorded call
// result N

// query // param item: `O=c1c(-c2ccc(Cl)cc2)[n+]([O-])c2ccccc2n1OCc1ccccn1` ; yields the recorded call
// result N

// query // param item: `O=C(c1cnccn1)N1CCC[C@@]2(CCN(c3ncccn3)C2)C1` ; yields the recorded call
// result N

// query // param item: `Cc1nc(Sc2ccccc2)c(C#N)cc1-c1ccccc1` ; yields the recorded call
// result N

// query // param item: `CC(=O)NNC(=O)C(O)(c1ccccc1)c1ccccc1` ; yields the recorded call
// result N

// query // param item: `OCCN1CCN(c2nc(N3CCCCC3)nc(N3CCCCC3)n2)CC1` ; yields the recorded call
// result N

// query // param item: `O=C1N/C(=C\c2ccc(N3CCOCC3)c(F)c2)C(=O)N1Cc1ccccc1` ; yields the recorded call
// result N

// query // param item: `C=C1C(=O)O[C@@H]2[C@H]3O[C@]3(C)CCC=C(C)CC[C@@H]12` ; yields the recorded call
// result N

// query // param item: `CCn1c(Cc2ccccc2)nnc1SCC(=O)NC(C)(C)C` ; yields the recorded call
// result N

// query // param item: `O=S(=O)(c1cccc(-c2nnc(-c3ccc(Br)cc3)o2)c1)N1CCCCCC1` ; yields the recorded call
// result N

// query // param item: `CCCCN1CCC(COC(=O)c2cc(Cl)c(N)c3c2OCCO3)CC1` ; yields the recorded call
// result Y

// query // param item: `Cc1sc2c(c1C)c(=O)n(-c1ccccc1)c1nnc(C)n21` ; yields the recorded call
// result N

// query // param item: `O=C(O)/C(=C/c1c(C(=O)O)[nH]c2cc(Cl)cc(Cl)c12)c1ccccc1` ; yields the recorded call
// result N

// query // param item: `CCOc1c2ccc(C(=O)NCCCCc3ccccc3)cc2nn1CC` ; yields the recorded call
// result Y

// query // param item: C[C@@]1(C(NC(=O)Cc2ccc(C(F)(F)F)cc2)c2ccc(-c3ccccc3)cc2)C[C@H]1C1CCCCC1 (some centres not stated) ; yields the recorded call
// result N

// query // param item: `C=CCn1c(Cc2ccc(OC)cc2)nnc1SCC(=O)c1cccc([N+](=O)[O-])c1` ; yields the recorded call
// result N

// query // param item: `COCCn1nc2cc(C(=O)NCc3cc(C(F)(F)F)cc(C(F)(F)F)c3)ccc2c1OC` ; yields the recorded call
// result Y

// query // param item: `O=C(COc1cccc2ccccc12)N1c2ccccc2CCc2ccccc21` ; yields the recorded call
// result N

// query // param item: `Cn1c2c(c(=O)n(C)c1=O)CN(CCN1CCNCC1)CN2` ; yields the recorded call
// result N

// query // param item: `CCOC(=O)N/N=C\c1ccc([N+](=O)[O-])o1` ; yields the recorded call
// result N
